B1: tRNA (parent)
chain: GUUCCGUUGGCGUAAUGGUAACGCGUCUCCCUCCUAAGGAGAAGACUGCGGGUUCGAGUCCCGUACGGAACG

# Variants of: B1
# assayMethodText: yeast fitness relative to wild type (ratio to wild type); higher = fitter; tRNA-Arg(CCU), competitive growth, 37 C, YPD
Variants at the floor of the assay were thinned out.
experimentalEndpoint: yeast fitness

mutant="U32C A43G A45G" experimentalendpoint="yeast fitness" endpointresult=0.608
mutant="U3C C34G A57C" experimentalendpoint="yeast fitness" endpointresult=0.715
mutant="C30G A36C" experimentalendpoint="yeast fitness" endpointresult=0.561
mutant="U35C A45G" experimentalendpoint="yeast fitness" endpointresult=0.773
mutant="G6C C24A C31U G38C" experimentalendpoint="yeast fitness" endpointresult="≤ 0.5"
mutant="U35A A69U" experimentalendpoint="yeast fitness" endpointresult=0.806
mutant="U47A G52C" experimentalendpoint="yeast fitness" endpointresult=0.581
mutant="U19C G44C A69U" experimentalendpoint="yeast fitness" endpointresult=0.762
mutant="C29A U35A" experimentalendpoint="yeast fitness" endpointresult=0.672
mutant="A43C C55A" experimentalendpoint="yeast fitness" endpointresult=0.588
mutant="C27G G48A U59G" experimentalendpoint="yeast fitness" endpointresult="≤ 0.5"
mutant="C4A C24G A69U" experimentalendpoint="yeast fitness" endpointresult="≤ 0.5"
mutant=U47G experimentalendpoint="yeast fitness" endpointresult=0.633
mutant="G9A G58A" experimentalendpoint="yeast fitness" endpointresult=0.918
mutant="G25A C46U G50C" experimentalendpoint="yeast fitness" endpointresult=0.556
mutant="U2C C24G C33G U53C C55U A70G" experimentalendpoint="yeast fitness" endpointresult="≤ 0.5"
mutant="C30U A42G A43U U54A" experimentalendpoint="yeast fitness" endpointresult="≤ 0.5"
mutant="U8G G12A A37C A43U C66A A70C" experimentalendpoint="yeast fitness" endpointresult=0.597
mutant="C5U A15U G25A C29U C31U C34U" experimentalendpoint="yeast fitness" endpointresult="≤ 0.5"
mutant="C5G A65U" experimentalendpoint="yeast fitness" endpointresult=0.796
mutant="C11U U19A A43U A65U" experimentalendpoint="yeast fitness" endpointresult=0.53
mutant="A45C G51C U64C" experimentalendpoint="yeast fitness" endpointresult="≤ 0.5"
mutant="U3C A14G C30U A45C C46G A69C" experimentalendpoint="yeast fitness" endpointresult="≤ 0.5"
mutant="C27U G67C" experimentalendpoint="yeast fitness" endpointresult=0.771
mutant="G41A A43G C66A" experimentalendpoint="yeast fitness" endpointresult="≤ 0.5"
mutant="C4U C5A G68C" experimentalendpoint="yeast fitness" endpointresult=0.551
mutant="C4A G39A C55U U59G G68C" experimentalendpoint="yeast fitness" endpointresult="≤ 0.5"
mutant="U7C A65G" experimentalendpoint="yeast fitness" endpointresult=0.95
mutant="C4A C49U A65U" experimentalendpoint="yeast fitness" endpointresult="≤ 0.5"
mutant="U7A U8G C22U C30U A42G C61A" experimentalendpoint="yeast fitness" endpointresult="≤ 0.5"
mutant="G17A A20G C27G A36C U47A G68A" experimentalendpoint="yeast fitness" endpointresult="≤ 0.5"
mutant="C5A A15G C33A C61U G67A" experimentalendpoint="yeast fitness" endpointresult="≤ 0.5"
mutant="C5U C29G C30G" experimentalendpoint="yeast fitness" endpointresult="≤ 0.5"
mutant="G23C C27U G56A G63C" experimentalendpoint="yeast fitness" endpointresult=0.573
mutant="A14G A21C A65C" experimentalendpoint="yeast fitness" endpointresult=0.539
mutant="C27A U32A C61G U64C" experimentalendpoint="yeast fitness" endpointresult="≤ 0.5"
mutant="C27U A65U A70C" experimentalendpoint="yeast fitness" endpointresult=0.607
mutant="A14G U28A" experimentalendpoint="yeast fitness" endpointresult=0.705
mutant="U2A G9A A37G G58A" experimentalendpoint="yeast fitness" endpointresult="≤ 0.5"
mutant="C5G G38A A69U" experimentalendpoint="yeast fitness" endpointresult=0.559
mutant="C29G C31A G44C A65C" experimentalendpoint="yeast fitness" endpointresult="≤ 0.5"
mutant="C5U A45C A70U" experimentalendpoint="yeast fitness" endpointresult=0.813
mutant="G10A C27G G48C C62A" experimentalendpoint="yeast fitness" endpointresult="≤ 0.5"
mutant="U2A U7C G41A A42C G50C A70G" experimentalendpoint="yeast fitness" endpointresult="≤ 0.5"
mutant="U8C U19G A45C" experimentalendpoint="yeast fitness" endpointresult="≤ 0.5"
mutant="A15G U19G" experimentalendpoint="yeast fitness" endpointresult=0.985
mutant="C5U A40U A42G A57C" experimentalendpoint="yeast fitness" endpointresult="≤ 0.5"
mutant="G6C A20C U35C A40G A42U G58A G63A G67A" experimentalendpoint="yeast fitness" endpointresult="≤ 0.5"
mutant="A21G A45G C46G A70U" experimentalendpoint="yeast fitness" endpointresult="≤ 0.5"
mutant="U2A U13G U28A A36U G56A C62G U64G" experimentalendpoint="yeast fitness" endpointresult="≤ 0.5"
mutant="U16C A43G U59C" experimentalendpoint="yeast fitness" endpointresult=0.609
mutant="C29A C66A G68C" experimentalendpoint="yeast fitness" endpointresult="≤ 0.5"
mutant="A15G C34G A37U C49G" experimentalendpoint="yeast fitness" endpointresult="≤ 0.5"
mutant="C33U C55U A70U" experimentalendpoint="yeast fitness" endpointresult=0.627
mutant="G25C A65G" experimentalendpoint="yeast fitness" endpointresult=1
mutant="A36G A45C G52C" experimentalendpoint="yeast fitness" endpointresult=0.533
mutant="U19C U28C G48C A70C" experimentalendpoint="yeast fitness" endpointresult="≤ 0.5"
mutant="A42U G50C U53A" experimentalendpoint="yeast fitness" endpointresult="≤ 0.5"
mutant="A14C U28A U54C G56C G58A" experimentalendpoint="yeast fitness" endpointresult="≤ 0.5"
mutant="C5G G17A A20C C49G" experimentalendpoint="yeast fitness" endpointresult=0.551
mutant="C31U C46U C49U" experimentalendpoint="yeast fitness" endpointresult=0.905
mutant="U3G C5G U19C C66U" experimentalendpoint="yeast fitness" endpointresult=0.57
mutant="G10A C24G U47C C62U" experimentalendpoint="yeast fitness" endpointresult="≤ 0.5"
mutant="U8C U28G C30G A40C A42U" experimentalendpoint="yeast fitness" endpointresult=0.54
mutant="G6A U7G U26C G52A C55U" experimentalendpoint="yeast fitness" endpointresult="≤ 0.5"
mutant="C4A G9C C30A G39A G58A" experimentalendpoint="yeast fitness" endpointresult="≤ 0.5"
mutant="G6A U13A U26C C30G A65C" experimentalendpoint="yeast fitness" endpointresult="≤ 0.5"
mutant="U2C A14U C29U" experimentalendpoint="yeast fitness" endpointresult=0.626
mutant="U13C G67A" experimentalendpoint="yeast fitness" endpointresult=0.848
mutant="C5U G9A C22A C55G" experimentalendpoint="yeast fitness" endpointresult="≤ 0.5"
mutant="A20C C49A G52A C61U" experimentalendpoint="yeast fitness" endpointresult="≤ 0.5"
mutant="A14U U19A C24G U54A" experimentalendpoint="yeast fitness" endpointresult="≤ 0.5"
mutant="U7A C27A" experimentalendpoint="yeast fitness" endpointresult=0.665
mutant="C4G G38A C55U C60G" experimentalendpoint="yeast fitness" endpointresult="≤ 0.5"
mutant="A15C U16C" experimentalendpoint="yeast fitness" endpointresult=0.678
mutant="C27G C29U C49U" experimentalendpoint="yeast fitness" endpointresult="≤ 0.5"
mutant="G9C U13C C31G A57G" experimentalendpoint="yeast fitness" endpointresult="≤ 0.5"
mutant="G44A C46A" experimentalendpoint="yeast fitness" endpointresult=0.835
mutant="G23C C30G A37U C62U A65U" experimentalendpoint="yeast fitness" endpointresult="≤ 0.5"
mutant="G25C C66G" experimentalendpoint="yeast fitness" endpointresult=0.639
mutant="U3G A37G" experimentalendpoint="yeast fitness" endpointresult=0.724
mutant="C11U A14U U28A C33U" experimentalendpoint="yeast fitness" endpointresult=0.535
mutant="C4G U47C U59G" experimentalendpoint="yeast fitness" endpointresult="≤ 0.5"
mutant="A15C C24G A69U" experimentalendpoint="yeast fitness" endpointresult=0.533
mutant="C31G U47G" experimentalendpoint="yeast fitness" endpointresult=0.667
mutant="C11U A40U C46A" experimentalendpoint="yeast fitness" endpointresult=0.74
mutant="U16C U28C G52C" experimentalendpoint="yeast fitness" endpointresult="≤ 0.5"
mutant="C11U A37C C46G C60U C61A" experimentalendpoint="yeast fitness" endpointresult=0.536
mutant="U7A C11U G17C C30G A37C G48C G51A" experimentalendpoint="yeast fitness" endpointresult="≤ 0.5"
mutant="C11A G41A C66G" experimentalendpoint="yeast fitness" endpointresult=0.536
mutant="G48A G63A" experimentalendpoint="yeast fitness" endpointresult=0.887
